target: T1, leptin receptor (ObR) naturally expressed on MCF-7 and DU-45 cells (human, UniProt P48357 22-1165)
T1 sequence (looked up): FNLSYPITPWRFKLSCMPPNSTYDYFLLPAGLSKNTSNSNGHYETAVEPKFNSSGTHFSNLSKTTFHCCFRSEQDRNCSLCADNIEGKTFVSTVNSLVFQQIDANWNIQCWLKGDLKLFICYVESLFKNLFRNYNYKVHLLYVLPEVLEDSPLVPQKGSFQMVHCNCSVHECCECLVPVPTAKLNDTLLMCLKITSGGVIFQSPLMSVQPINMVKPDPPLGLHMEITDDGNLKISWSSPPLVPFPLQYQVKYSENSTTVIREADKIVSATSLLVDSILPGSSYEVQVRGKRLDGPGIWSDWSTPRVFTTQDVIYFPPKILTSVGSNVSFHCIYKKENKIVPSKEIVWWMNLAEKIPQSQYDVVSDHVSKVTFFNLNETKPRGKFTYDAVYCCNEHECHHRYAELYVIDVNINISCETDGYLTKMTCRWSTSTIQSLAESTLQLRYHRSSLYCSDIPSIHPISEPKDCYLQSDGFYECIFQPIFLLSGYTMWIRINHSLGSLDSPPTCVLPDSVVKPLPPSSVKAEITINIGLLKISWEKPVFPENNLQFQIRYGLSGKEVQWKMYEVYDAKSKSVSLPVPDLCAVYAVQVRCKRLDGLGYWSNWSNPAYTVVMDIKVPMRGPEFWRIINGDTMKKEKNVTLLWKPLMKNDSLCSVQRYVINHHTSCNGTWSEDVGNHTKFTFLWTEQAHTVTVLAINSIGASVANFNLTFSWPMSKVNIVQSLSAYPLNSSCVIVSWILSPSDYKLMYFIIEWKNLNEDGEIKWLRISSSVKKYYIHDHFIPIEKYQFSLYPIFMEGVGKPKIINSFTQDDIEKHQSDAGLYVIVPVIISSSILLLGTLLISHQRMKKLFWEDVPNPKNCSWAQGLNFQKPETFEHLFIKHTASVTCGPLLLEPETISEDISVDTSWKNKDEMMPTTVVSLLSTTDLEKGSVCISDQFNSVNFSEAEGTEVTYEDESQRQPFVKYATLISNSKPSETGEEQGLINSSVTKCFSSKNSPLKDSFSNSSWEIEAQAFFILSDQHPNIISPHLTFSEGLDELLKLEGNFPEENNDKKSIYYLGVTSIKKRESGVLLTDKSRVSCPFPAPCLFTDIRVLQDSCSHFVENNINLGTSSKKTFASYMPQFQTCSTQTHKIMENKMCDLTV
protocol_summary: cell-based or functional assay
Starred links: 1 amine or outer side, 2 acyl side, 3 side chain; linkers in the order of their positions; H or OH if unused. Non-standard residues stand in square brackets, D forms with d. Primed or numbered codes have the meaning given here. No end group written: not given here. Tyr(Me)″ = methylated tyrosine, COc1ccc(C[C@H](N[*:1])C(=O)[*:2])cc1; Tyr(3,5-I2) = N[C@@H](Cc1cc(I)c(O)c(I)c1)C(=O)O; dGla = N[C@H](CC(C(=O)O)C(=O)O)C(=O)O; βAla = NCCC(=O)O
quantity_name: Relative stimulation (%) of MCF-7 cells, with 10 nM leptin

G[Tyr(3,5-I2)]ST[dGla]VV[dA]LSRL-NH2 (N-terminus assumed; SMILES CC(C)C[C@H](NC(=O)[C@H](CCCNC(=N)N)NC(=O)[C@H](CO)NC(=O)[C@H](CC(C)C)NC(=O)[C@@H](C)NC(=O)[C@@H](NC(=O)[C@@H](NC(=O)[C@@H](CC(C(=O)O)C(=O)O)NC(=O)[C@@H](NC(=O)[C@H](CO)NC(=O)[C@H](Cc1cc(I)c(O)c(I)c1)NC(=O)CN)[C@@H](C)O)C(C)C)C(C)C)C(N)=O) [F2 peptide]	-15
G[Tyr(3,5-I2)]STEVV[βAla]LSRL-NH2 (N-terminus assumed; SMILES CC(C)C[C@H](NC(=O)[C@H](CCCNC(=N)N)NC(=O)[C@H](CO)NC(=O)[C@H](CC(C)C)NC(=O)CCNC(=O)[C@@H](NC(=O)[C@@H](NC(=O)[C@H](CCC(=O)O)NC(=O)[C@@H](NC(=O)[C@H](CO)NC(=O)[C@H](Cc1cc(I)c(O)c(I)c1)NC(=O)CN)[C@@H](C)O)C(C)C)C(C)C)C(N)=O) [A4 peptide]	-10
[Tyr(Me)″]STEVV[βAla]LSRL-NH2 (N-terminus assumed; SMILES COc1ccc(C[C@H](N)C(=O)N[C@@H](CO)C(=O)N[C@H](C(=O)N[C@@H](CCC(=O)O)C(=O)N[C@H](C(=O)N[C@H](C(=O)NCCC(=O)N[C@@H](CC(C)C)C(=O)N[C@@H](CO)C(=O)N[C@@H](CCCNC(=N)N)C(=O)N[C@@H](CC(C)C)C(N)=O)C(C)C)C(C)C)[C@@H](C)O)cc1) [A11 peptide]	-3

Source listed as patent US20110015124A1.
